Each record here notes measured TGI.
System: PC-3 prostate
METHOD_DESCRIPTION: NCI tumour cell line growth inhibition, 48 h

# example entries with known answers
INSERT INTO measurements (compound, measured_attribute, reading) VALUES
  ('CC1=CC(=O)CC2(C)CCC(C(C)CC(=O)CC(C)C)CC12 (stereo not given)', 'TGI', '40.7 µM'),
  ('Nc1nc(N)nc(CCCc2nc(N)nc(N)n2)n1', 'TGI', '> 100 µM'),
  ('CCOC(=O)C(C)c1nc2c(Cl)c3ncccc3cc2[nH]c1=O (stereo not given)', 'TGI', '> 100 µM'),
  ('Cn1c(=O)c2c(ncn2CC(=O)Nc2ccc(-c3ccccc3)nn2)n(C)c1=O', 'TGI', '> 100 µM');

Turning now to a further compound:
Fill in: TGI of COC(=O)c1cc(C)ccc1CC(Cc1ccc(C)cc1)C(=O)OC (stereo not given) is ___ > 100 µM
